Consider the following compounds; for each one, report its viability at 28.5 h, 10 µM.
Protocol Summary: in vitro
Settings: human, hela cells, % viability
Just the number please, in %, no unit attached.

Return viability at 28.5 h, 10 µM (reported value) for this compound: Cc1cc(CNC(=O)C2=CC(=O)CC(C)(C)O2)no1 [CBK153281] 104

Return viability at 28.5 h, 10 µM (reported value) for this compound: O=C(c1ccc2[nH]ccc2c1)N1CCCC1 [CBK149074] 106

Return viability at 28.5 h, 10 µM (reported value) for this compound: CC(C)(C)OC(=O)NC1CCC(NCc2c[nH]c(-c3ccccc3)n2)CC1 (stereo not drawn) [CBK056692] 80.9

Return viability at 28.5 h, 10 µM (reported value) for this compound: CC(O)C(=O)NS(=O)(=O)c1ccccc1 (stereo not drawn) [CBK038300] 104

Return viability at 28.5 h, 10 µM (reported value) for this compound: COc1ccc(Cn2c(C)nc3ccccc32)cc1 [CBK201156] 116

Return viability at 28.5 h, 10 µM (reported value) for this compound: CCOC(=O)C1CCCN(S(=O)(=O)c2sc3ccc(Cl)cc3c2C)C1 (stereo not drawn) [CBK154797] 97.2

Return viability at 28.5 h, 10 µM (reported value) for this compound: O=C(CSc1nc2ccccc2o1)N1c2ccccc2Sc2ccccc21 [CBK221524] 97.7

Return viability at 28.5 h, 10 µM (reported value) for this compound: CCCC/C=C/c1cncc(NCCO)n1 [CBK065419] 109

Return viability at 28.5 h, 10 µM (reported value) for this compound: c1ncc(N2CCCC2)nc1OC1CCOC1 (stereo not drawn) [CBK115893] 91.3

Return viability at 28.5 h, 10 µM (reported value) for this compound: Cc1nc(C2CN(Cc3ccc(Cl)c4cccnc34)CCO2)no1 (stereo not drawn) [CBK305384] 102

Return viability at 28.5 h, 10 µM (reported value) for this compound: Cc1ccc(-n2c3c(cc(C(=O)NCCCN4CCOCC4)c2=O)C(=O)CCC3)cc1 [CBK266094] 115

Return viability at 28.5 h, 10 µM (reported value) for this compound: O=C(NC[C@H]1C[C@@H]2CC[N@]1C[C@@H]2CN1CCN(c2ccccn2)CC1)c1ccco1 [CBK288867] 107

Return viability at 28.5 h, 10 µM (reported value) for this compound: CCCN(Cc1ccoc1)CC1CC1 [CBK018931] 94.6

Return viability at 28.5 h, 10 µM (reported value) for this compound: O=C(O)CC(C(=O)N1CCOCC1)N1CCCCC1 (stereo not drawn) [CBK287074] 98.7

Return viability at 28.5 h, 10 µM (reported value) for this compound: COc1ccc([C@@]23CC[C@@H](NC(=O)Nc4ccc(C)c(F)c4F)C[C@@H]2N(C)CC3)cc1OC [CBK073686T] 87.3

Return viability at 28.5 h, 10 µM (reported value) for this compound: CCNC(=O)N(C)c1c(CC)nc2ccc(C(=O)N3CCN(C(C)=O)CC3)cn12 [CBK146362] 104

Return viability at 28.5 h, 10 µM (reported value) for this compound: Cc1noc(C)c1CCC(=O)N1CC[C@H]2NC(=O)COc3ccccc3C/C=C/C[C@H]2C1 [CBK292115] 110

Return viability at 28.5 h, 10 µM (reported value) for this compound: CCN1CCC2(CCC1=O)CN(Cc1cncn1CC(C)C)CCN2C (stereo not drawn) [CBK306947] 96

Return viability at 28.5 h, 10 µM (reported value) for this compound: CCCC(NC(=O)c1cccc(-n2cnnc2)c1)c1cccs1 (stereo not drawn) [CBK282745] 102

Return viability at 28.5 h, 10 µM (reported value) for this compound: O=C(Cn1c(=O)oc2ccccc21)Nc1cccc(C(=O)O)c1 [CBK267641] 97.4

Return viability at 28.5 h, 10 µM (reported value) for this compound: COc1ccc(NC(=O)CCC(=O)O)c(OC)c1 [CBK265451] 104

Return viability at 28.5 h, 10 µM (reported value) for this compound: c1ccc(-n2ncc3c(NCc4cccnc4)ncnc32)cc1 [CBK265528] 85.2

Return viability at 28.5 h, 10 µM (reported value) for this compound: Cc1nn2c(C3CCCNC3)ccnc2c1-c1ccc(F)cc1 (stereo not drawn) [CBK284139] 78.8

Return viability at 28.5 h, 10 µM (reported value) for this compound: Cc1ccc(NC(=O)c2cnc(SCc3ccc(F)cc3)n(C)c2=O)cc1C [CBK287674] 90.5

Return viability at 28.5 h, 10 µM (reported value) for this compound: O=C(O)c1cccc(NC(=O)c2ccc(CSc3ccc(Br)cc3)cc2)c1 [CBK263226] 98.3

Return viability at 28.5 h, 10 µM (reported value) for this compound: COc1ccc(-c2ccc(OC)cc2C(=O)Nc2ccc(Cn3cncn3)cc2)cc1 [CBK285588] 109

Return viability at 28.5 h, 10 µM (reported value) for this compound: CC(C)(C)c1ccc(S(=O)(=O)N2CCN(CCC(=O)O)CC2)cc1 [CBK297089] 103

Return viability at 28.5 h, 10 µM (reported value) for this compound: CCCN1C(=O)c2ccc(C(=O)Nc3cc(C(=O)O)cc(C(=O)O)c3)cc2C1=O [CBK266441] 97

Return viability at 28.5 h, 10 µM (reported value) for this compound: NS(=O)(=O)c1ccc(CCNC(=O)c2ccc(C#CC3(O)CCCCC3)cc2)cc1 [CBK263104] 93.9

Return viability at 28.5 h, 10 µM (reported value) for this compound: Cc1cccc(CN2CCC3(CCc4ccccc4C(=O)N3)C2)n1 (stereo not drawn) [CBK284619] 106

Return viability at 28.5 h, 10 µM (reported value) for this compound: c1cnc2c(c1)cc([C@@H]1CCCO1)n2CCN1CCCCC1 [CBK282273] 101

Return viability at 28.5 h, 10 µM (reported value) for this compound: CN(CC(=O)NCc1ccc2c(c1)OCO2)Cc1ccc(Br)s1 [CBK295185] 80.4

Return viability at 28.5 h, 10 µM (reported value) for this compound: COC(=O)c1c(NC(=O)CC2Sc3ccccc3NC2=O)sc(C)c1C (stereo not drawn) [CBK264429] 103

Return viability at 28.5 h, 10 µM (reported value) for this compound: OC1CSc2nc(-c3cnccn3)nn2C1 (stereo not drawn) [CBK027096] 97.8

Return viability at 28.5 h, 10 µM (reported value) for this compound: Nc1nc(N)n(-c2ccccc2)n1 [CBK026515] 104

Return viability at 28.5 h, 10 µM (reported value) for this compound: S=c1[nH]cc(-c2ccc(Br)cc2)o1 [CBK288498] 92.8

Return viability at 28.5 h, 10 µM (reported value) for this compound: COc1ccc(F)cc1-c1cccc(CC2(C(=O)NC3CCCCC3)CCOCC2)c1 [CBK285541] 92.8

Return viability at 28.5 h, 10 µM (reported value) for this compound: O=C(CN1C(=O)c2ccccc2S1(=O)=O)Nc1ccccc1-c1ccccc1 [CBK266390] 102

Return viability at 28.5 h, 10 µM (reported value) for this compound: Nc1ncc(-c2ccc3c(c2)OCO3)nc1NCc1ccncc1 [CBK063483] 106

====

Protocol Summary: in vitro
Settings: human, hela cells, % viability
Consider the following compounds; for each one, report its viability at 28.5 h, 10 µM.
Just the number please, in %, no unit attached.

Return viability at 28.5 h, 10 µM (reported value) for this compound: COC(=O)c1cc(Cl)c2ccccc2n1 80.4

Return viability at 28.5 h, 10 µM (reported value) for this compound: CSc1ncc(C(=O)N2CCC(N3CCCC(O)C3)CC2)cn1 (stereo not shown) 106

Return viability at 28.5 h, 10 µM (reported value) for this compound: CC(C)CC1OC(NC2CCCCCC2)=NC1=O (stereo not shown) 88.8

Return viability at 28.5 h, 10 µM (reported value) for this compound: Cc1c(S(=O)(=O)Nc2ccc3cn[nH]c3c2)cnn1-c1ccccc1 92.4

Return viability at 28.5 h, 10 µM (reported value) for this compound: c1ccc(SCc2nc(-c3cccnc3)no2)cc1 101

Return viability at 28.5 h, 10 µM (reported value) for this compound: CCCn1c(C)cc2cc(NC(=O)C(C)n3ccnc3)ccc21 (stereo not shown) 85.8

Return viability at 28.5 h, 10 µM (reported value) for this compound: CCOC(=O)c1[nH]c2ccccc2c1NS(=O)(=O)Cc1ccccc1 93.1

Return viability at 28.5 h, 10 µM (reported value) for this compound: CC(C)NC(=O)Nc1ccccc1-c1ncn(C)n1 95.6

Return viability at 28.5 h, 10 µM (reported value) for this compound: CC(C)CC(NC(=O)N1CCOc2ccc(Cl)cc2C1)c1ncnn1C (stereo not shown) 115

Return viability at 28.5 h, 10 µM (reported value) for this compound: O=C1CC(c2ccc(F)cc2)CC(=O)C1=CNCCN1CCN(C(=S)Nc2ccccc2)CC1 (stereo not shown) 94.1
